If the reported melting point equals or exceeds 200 °C, assign fulfilled. If not, assign not fulfilled.

NC(=O)NN=CC(=O)c1ccc(C(=O)C=NNC(N)=O)cc1 : fulfilled

Qu. Is the recorded value of melting point equal to or greater than 200 °C for this compound? CN(C)c1ccn2c(=O)c3ccccc3cc2c1
Ans. not fulfilled

Qu. Is the recorded value of melting point equal to or greater than 200 °C for this compound? c1cc2c3c(ccc2c2c1CC2)CC3
Ans. not fulfilled

Qu. Is the recorded value of melting point equal to or greater than 200 °C for this compound? COc1cc(O)c2c(=O)cc(-c3ccc(O)cc3)oc2c1
Ans. fulfilled

Qu. Is the recorded value of melting point equal to or greater than 200 °C for this compound? CC(=O)OC1CC2C(C)C(=O)C3(C(O)CC4C(C)(C)CCC(OC(C)=O)C4(C)C13)C2O (configuration not stated)
Ans. fulfilled

Qu. Is the recorded value of melting point equal to or greater than 200 °C for this compound? Cc1cc(C)n2nc(N)c(/N=N/c3ccccc3C)c2n1
Ans. fulfilled
